Ref: patent US20060089371A1

# Target system: IP receptor (Homo sapiens)
# Construct: one million cells in 160 μl aliquot of cell suspension were put in a well of 96 well plate
# Sequence (P43119 whole entry): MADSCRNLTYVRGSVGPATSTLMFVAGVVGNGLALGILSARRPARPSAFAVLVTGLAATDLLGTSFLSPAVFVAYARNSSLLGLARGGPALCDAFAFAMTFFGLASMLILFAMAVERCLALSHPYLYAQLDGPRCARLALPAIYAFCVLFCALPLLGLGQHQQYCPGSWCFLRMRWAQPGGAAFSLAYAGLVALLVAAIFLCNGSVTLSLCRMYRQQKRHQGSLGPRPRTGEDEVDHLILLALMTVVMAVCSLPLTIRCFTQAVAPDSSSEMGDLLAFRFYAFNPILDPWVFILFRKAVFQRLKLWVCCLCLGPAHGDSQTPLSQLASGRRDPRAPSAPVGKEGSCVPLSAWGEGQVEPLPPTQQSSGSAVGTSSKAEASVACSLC
# Assay: IP receptor binding/cAMP in HEL cells ([3H]-iloprost binding, Assay 1; iloprost-induced cAMP production, Assay 2)
# Experimental setup: compounds of about 40 to 90% purity, read-out: In vitro activity grade (IC50 class)
Reported metric: IC50

{"Compound": "c1ccc(COc2ccc(-c3cc(NC(Cc4ccccc4)c4nnn[nH]4)ncn3)cc2)cc1 (stereo not drawn) [Example 27-1]", "Measurement": "< 100 nM"}
{"Compound": "O=C(O)C(Cc1ccccc1)Nc1cccc(-c2ccc(OCCn3cccc3)cc2)c1 (stereo not drawn) [Example 24-7]", "Measurement": "< 100 nM"}
{"Compound": "O=C(O)C(Cc1c[nH]cn1)Nc1cc(-c2ccc(OCc3ccccc3)cc2)ncn1 (stereo not drawn) [Example 1-39]", "Measurement": "100 to 1000 nM"}

###

In this section we review reported melting point values for a set of compounds.

{"Compound": "O=C(c1ccc(-c2cc(NC(Cc3ccccc3)C(=O)O)ncn2)cc1)C1CCCCC1 (centres unmarked) [Example 17-2]", "melting point": "116 to 119 °C"}
{"Compound": "CC(Nc1cc(-c2ccc(OCc3ccccc3)cc2)ncn1)C(=O)O (centres unmarked) [Example 1-18]", "melting point": "158 °C"}
{"Compound": "CC(Cc1cccc(O)c1)(Nc1cc(-c2ccc(OCc3ccccc3)cc2)ncn1)C(=O)O (centres unmarked) [Example 1-35]", "melting point": "265 to 267 °C"}
{"Compound": "O=C(O)C(Cc1ccccc1)Nc1cc(-c2cccc(OCc3ccccc3)c2)ncn1 (centres unmarked) [Example 1-43]", "melting point": "150 to 152 °C"}
{"Compound": "CC(C)C(Nc1cc(-c2ccc(OCc3ccccc3)cc2)ncn1)C(=O)O (centres unmarked) [Example 1-16]", "melting point": "235 to 237 °C"}
{"Compound": "O=C(O)C(Cc1ccccn1)Nc1cc(-c2ccc(OCc3cc(F)cc(F)c3)cc2)ncn1 (centres unmarked) [Example 2-39]", "melting point": "90 to 92 °C"}
{"Compound": "O=C(O)[C@H](Cc1ccccc1)Nc1cc(-c2ccc(/C=N/Oc3ccccc3)cc2)ncn1 [Example 21-1]", "melting point": "152.8 °C"}
{"Compound": "O=C(O)C(Cc1ccccc1)Nc1cc(-c2ccc(OCC(F)(F)F)cc2)ncn1 (centres unmarked) [Example 2-31]", "melting point": "109 to 112 °C"}
{"Compound": "O=C(O)C(Cc1ccccc1)Nc1ncnc(-c2ccc(OCc3ccccc3)cc2)n1 (centres unmarked) [Example 1-30]", "melting point": "186 to 188 °C"}
{"Compound": "O=C(O)C(Cc1ccccc1)Nc1cc(-c2ccc(OCc3cccnc3)cc2)ncn1 (centres unmarked) [Example 2-21]", "melting point": "135 to 136 °C (dec.)"}
{"Compound": "O=C(O)C(Cc1ccccc1)Nc1cccc(-c2ccc(OCc3ccccc3F)cc2)c1 (centres unmarked) [Example 24-4]", "melting point": "158 to 161 °C"}
{"Compound": "O=C(O)[C@H](Cc1ccccc1)Nc1cccc(-c2ccc(OCc3ccccc3)cc2)c1 [Example 24-1]", "melting point": "152 to 154 °C"}
{"Compound": "O=C(O)[C@H](Cc1ccccc1)Nc1cc(-c2ccc(OCc3ccccc3)cc2)ncn1 [Example 1-50]", "melting point": "150 to 155 °C"}
{"Compound": "O=C(O)C(Cc1ccccc1)Nc1cc(-c2ccc(NS(=O)(=O)c3ccc(F)cc3)cc2)ncn1 (centres unmarked) [Example 15-2]", "melting point": "217 to 220 °C (dec.)"}
{"Compound": "O=C(O)C(Cc1ccccn1)Nc1cc(-c2ccc(OCCc3ccccc3)cc2)ncn1 (centres unmarked) [Example 2-38]", "melting point": "52 to 53 °C"}
{"Compound": "O=C(O)C(Cc1ccccc1)Nc1cc(-c2ccc(OCCc3ccccn3)cc2)ncn1 (centres unmarked) [Example 2-26]", "melting point": "120 to 122 °C (dec.)"}
{"Compound": "COc1cc(COc2ccc(-c3cc(NC(Cc4ccccc4)C(=O)O)ncn3)cc2)cc(OC)c1 (centres unmarked) [Example 2-2]", "melting point": "90 to 93 °C"}
